Examples of binders with documented koff follow.
- targetOfAssay: T1, recombinant human Tim-3-Fc (R&D Systems, 2365-TM) (human, UniProt Q8TDQ0 22-202, biotinylated in the Galectin-9 competition ELISA (sites not given))
- T1 construct: Bought protein; also called huTim-3-Fc; biotinylated Tim-3-Fc; not shown: Fc of the bought fusion protein
- assay: SPR Biacore, human Tim-3 Fc;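 also: antibodies captured on an anti-FLAG sensor surface, Tim-3-Fc flowed over as analyte at 25 °C in HBS-EP+ buffer, rates fit with a 1:1 Langmuir model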
The reply should be a number in s⁻¹, with the unit left off.

INSERT INTO measurements (binder, endpointvalue) VALUES
  ('h22E11-5-IgG-LC × h22E11-VH4-30-4 (antibody, V domains shown, Humanized m22E11) VH: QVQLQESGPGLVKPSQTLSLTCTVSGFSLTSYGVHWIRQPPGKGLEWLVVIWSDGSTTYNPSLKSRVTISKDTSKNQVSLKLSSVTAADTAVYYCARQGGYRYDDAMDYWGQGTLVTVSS VL: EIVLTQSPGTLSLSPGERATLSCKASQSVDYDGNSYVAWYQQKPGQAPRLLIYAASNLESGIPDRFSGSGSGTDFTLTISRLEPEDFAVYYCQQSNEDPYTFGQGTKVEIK', 0.00117),
  ('h22E11-VK1-39 × h22E11-VH4-30-4 (antibody, V domains shown, Humanized m22E11) VH: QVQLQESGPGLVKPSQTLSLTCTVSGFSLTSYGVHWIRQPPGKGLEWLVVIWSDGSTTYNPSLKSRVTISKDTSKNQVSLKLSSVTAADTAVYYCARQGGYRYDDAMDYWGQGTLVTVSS VL: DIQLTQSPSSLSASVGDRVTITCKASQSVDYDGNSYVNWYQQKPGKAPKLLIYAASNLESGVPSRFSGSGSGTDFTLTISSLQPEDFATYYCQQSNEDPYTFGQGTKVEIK', 0.00126),
  ('h22E11-VK1-39 × h22E11-VH1-69 (antibody, V domains shown, Humanized m22E11) VH: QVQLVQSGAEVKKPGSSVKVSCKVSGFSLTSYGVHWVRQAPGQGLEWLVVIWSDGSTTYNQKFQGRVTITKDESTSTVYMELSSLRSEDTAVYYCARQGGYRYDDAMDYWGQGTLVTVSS VL: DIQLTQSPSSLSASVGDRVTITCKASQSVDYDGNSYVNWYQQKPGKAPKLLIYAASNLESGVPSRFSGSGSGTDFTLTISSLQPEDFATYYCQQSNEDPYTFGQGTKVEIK', 0.00094),
  ('h22E11-VK1-39 × h22E11-5-IgG-HC (antibody, V domains shown, Humanized m22E11) VH: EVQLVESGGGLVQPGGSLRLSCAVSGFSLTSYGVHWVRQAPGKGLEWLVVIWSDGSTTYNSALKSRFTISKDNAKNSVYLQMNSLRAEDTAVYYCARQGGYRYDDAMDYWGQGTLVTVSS VL: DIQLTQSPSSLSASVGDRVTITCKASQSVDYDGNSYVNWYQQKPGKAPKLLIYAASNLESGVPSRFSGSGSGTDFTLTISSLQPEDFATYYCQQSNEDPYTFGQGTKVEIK', 0.00102);

Next, consider the following binder.
h22E11-VK3-11 × h22E11-VH1-69 (antibody, V domains shown, Humanized m22E11) VH: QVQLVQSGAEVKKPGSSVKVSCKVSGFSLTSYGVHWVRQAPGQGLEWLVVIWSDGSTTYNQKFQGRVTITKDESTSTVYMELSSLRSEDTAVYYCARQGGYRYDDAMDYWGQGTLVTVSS VL: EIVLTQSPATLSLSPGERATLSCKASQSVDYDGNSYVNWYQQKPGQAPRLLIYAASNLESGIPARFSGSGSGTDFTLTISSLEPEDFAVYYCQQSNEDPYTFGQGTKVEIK has a reported koff of 0.000867

Origin of values: patent US20200190192A1
